target: human activated C1r complement component (Homo sapiens (Human)); assay: Inhibition of human C1r; conditions: S2314 substrate; read-out: h C1r Ki
Sequence (P00736 464-705): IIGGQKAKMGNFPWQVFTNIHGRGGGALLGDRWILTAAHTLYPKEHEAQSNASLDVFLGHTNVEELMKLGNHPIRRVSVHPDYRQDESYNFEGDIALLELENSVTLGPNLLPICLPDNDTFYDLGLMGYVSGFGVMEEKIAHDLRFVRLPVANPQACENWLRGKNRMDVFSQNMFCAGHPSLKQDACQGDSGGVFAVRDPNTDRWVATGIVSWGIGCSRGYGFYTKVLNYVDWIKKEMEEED
Sequence (P00736 18-463 partner): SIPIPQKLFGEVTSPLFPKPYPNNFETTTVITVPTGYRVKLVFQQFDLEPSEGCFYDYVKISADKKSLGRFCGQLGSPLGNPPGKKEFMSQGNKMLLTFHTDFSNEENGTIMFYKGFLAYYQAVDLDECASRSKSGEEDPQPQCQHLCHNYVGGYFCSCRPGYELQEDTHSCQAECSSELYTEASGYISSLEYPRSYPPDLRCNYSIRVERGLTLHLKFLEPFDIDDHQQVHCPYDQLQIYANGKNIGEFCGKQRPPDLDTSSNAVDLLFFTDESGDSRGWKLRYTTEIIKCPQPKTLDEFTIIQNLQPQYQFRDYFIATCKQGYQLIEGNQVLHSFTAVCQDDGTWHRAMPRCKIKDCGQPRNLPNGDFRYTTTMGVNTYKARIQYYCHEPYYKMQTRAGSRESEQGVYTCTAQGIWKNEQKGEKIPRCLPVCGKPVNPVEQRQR
pKi: −log10 of the molar value.
assayEndpoint: pKi

A selection of reference data follows.
{"columns": ["structure", "pKi"],
 "data": [
  ["CC(=O)N1CCC(CC[C@@H](NS(=O)(=O)Cc2ccccc2)C(=O)N[C@@H](CCC2CCNCC2)C(=O)NCc2ccc(C(=N)N)cc2)CC1", "< 4.40"],
  ["N=C(N)c1ccc(CNC(=O)[C@H](CCC2CCNCC2)NC(=O)[C@@H](CCc2ccncc2)NS(=O)(=O)Cc2ccccc2)cc1", "< 4.70"]
]}

Give the measured pKi for N=C(N)c1ccc(CNC(=O)[C@H](CCC2CCNCC2)NC(=O)[C@@H](CCC2CCNCC2)NS(=O)(=O)Cc2ccccc2)cc1
< 4.00

Look up and state reported pKi for N=C(N)c1ccc(CNC(=O)[C@H](CCC2CCNCC2)NC(=O)[C@@H](CCCC2CCNCC2)NS(=O)(=O)Cc2ccccc2)cc1
< 4.30

Answer with the recorded pKi of N=C(N)c1ccc(CNC(=O)[C@H](CCC2CCNCC2)NC(=O)[C@@H](CCc2cc[n+]([O-])cc2)NS(=O)(=O)Cc2ccccc2)cc1 only.
< 4.30

Query pKi for COC(=O)N1CCC(CCC[C@@H](NS(=O)(=O)Cc2ccccc2)C(=O)N[C@@H](CCC2CCNCC2)C(=O)NCc2ccc(C(=N)N)cc2)CC1
< 4.00

Annotate the compound CN(C)C(=O)N1CCC(CC[C@@H](NS(=O)(=O)Cc2ccccc2)C(=O)N[C@@H](CCC2CCNCC2)C(=O)NCc2ccc(C(=N)N)cc2)CC1 with its measured pKi.
< 4.30

====

target: human activated protein C (Homo sapiens (Human), UniProt P04070); assay: Inhibition of human activated protein C; format: biochemical; details: Pefachrome PCa substrate; read-out: h aPC Ki
Sequence (P04070 212-450): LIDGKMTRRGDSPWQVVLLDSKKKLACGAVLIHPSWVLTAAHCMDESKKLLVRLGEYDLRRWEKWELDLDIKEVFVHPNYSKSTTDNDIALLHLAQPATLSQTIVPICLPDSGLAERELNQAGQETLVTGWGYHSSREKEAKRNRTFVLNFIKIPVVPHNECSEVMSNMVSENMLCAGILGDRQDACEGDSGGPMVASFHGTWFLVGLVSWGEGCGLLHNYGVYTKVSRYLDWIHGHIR
Sequence (P04070 43-197 partner): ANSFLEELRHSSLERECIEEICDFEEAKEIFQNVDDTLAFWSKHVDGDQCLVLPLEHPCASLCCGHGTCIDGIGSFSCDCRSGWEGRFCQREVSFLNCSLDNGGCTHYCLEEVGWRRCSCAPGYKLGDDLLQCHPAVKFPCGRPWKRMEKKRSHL
assayEndpoint: Ki (nM)

a. N=C(N)c1ccc(CNC(=O)[C@H](CCC2CCNCC2)NC(=O)[C@@H](CCc2ccncc2)NS(=O)(=O)Cc2ccccc2)cc1
b. N=C(N)c1ccc(CNC(=O)[C@H](CCC2CCNCC2)NC(=O)[C@@H](CCCc2ccncc2)NS(=O)(=O)Cc2ccccc2)cc1
c. CN(C)C(=O)N1CCC(CC[C@@H](NS(=O)(=O)Cc2ccccc2)C(=O)N[C@@H](CCC2CCNCC2)C(=O)NCc2ccc(C(=N)N)cc2)CC1
d. N=C(N)c1ccc(CNC(=O)[C@H](CCC2CCNCC2)NC(=O)[C@@H](CCc2cc[n+]([O-])cc2)NS(=O)(=O)Cc2ccccc2)cc1
Order the records by Ki, with each subsequent value no larger than the one before. In plain terms: list the labels in the order you were asked to.
c, b, d, a
(c: 1600 nM, b: 600 nM, d: 250 nM, a: 27 nM)

A. N=C(N)c1ccc(CNC(=O)[C@H](CCC2CCNCC2)NC(=O)[C@H](NS(=O)(=O)Cc2ccccc2)c2ccccc2)cc1
B. N=C(N)c1ccc(CNC(=O)[C@H](CCC2CCNCC2)NC(=O)[C@@H](CCCc2ccccc2)NS(=O)(=O)Cc2cccc(C(=O)O)c2)cc1
Pick the one with the larger Ki: A vs B Please indicate the selected item by its label.
B
